- Read-out: Interferon-gamma inducible Protein 10 (IP10), CXCL10 (gene 3627)
- assay_summary: BSK_BE3C_IP10: BioMAP Diversity Plus: BE3C Assay for Interferon-gamma inducible Protein 10 (IP10) Biomarker Activity (AID 2283034)
- assay_context: primary human bronchial epithelial cells; actives raise or lower the signal
Active and inactive are the calls of the source. The calls were made as follows: active = hit-call score of the fitted dose curve at least 0.9, where 1 is the maximum; inactive = score below 0.9.
Give one outcome, nothing more. List: t for active, f for inactive

Known results for molecules:
molecule: COCc1cnc(C2=NC(C)(C(C)C)C(=O)N2)c(C(=O)O)c1 (configuration not stated)
label: f
--
molecule: CC(C)=CC1C(C(=O)OCc2coc(Cc3ccccc3)c2)C1(C)C (configuration not stated)
label: f
--
molecule: COCC(=O)N(c1c(C)cccc1C)C(C)C(=O)OC (configuration not stated)
label: f

# input I'd appreciate the recorded outcome for CCCCC(O)(Cn1cncn1)c1ccc(Cl)cc1Cl (configuration not stated) from this test.
# output t

# input Now the same for "Nc1c(Cl)c(Cl)nc(C(=O)O)c1Cl"
# output f

# input Queued: "CN=C=S"
# output f

# input Try this molecule too: "COP(=O)(OC)O/C(C)=C/C(=O)N(C)C"
# output f

# input Input "C=CCOC(=O)C(C)(C)OC(=O)c1cc(-n2c(=O)cc(C(F)(F)F)n(C)c2=O)ccc1Cl"
# output f

# input Also check "N#CN=C1SCCN1Cc1ccc(Cl)nc1"
# output f

# input Also, COCC(C)N(C(=O)CCl)c1c(C)csc1C (configuration not stated) please.
# output f

# input What about this molecule? "C=C(C)CN(CC)c1c([N+](=O)[O-])cc(C(F)(F)F)cc1[N+](=O)[O-]"
# output f

# input Would you mind doing "N#Cc1c[nH]cc1-c1cccc2c1OC(F)(F)O2" as well?
# output f

###

- target_entity: rat Peripheral-type Benzodiazepine Receptor (PBR), Tspo (gene 24230) (UniProt P16257)
- Sequence (P16257 whole entry, looked up): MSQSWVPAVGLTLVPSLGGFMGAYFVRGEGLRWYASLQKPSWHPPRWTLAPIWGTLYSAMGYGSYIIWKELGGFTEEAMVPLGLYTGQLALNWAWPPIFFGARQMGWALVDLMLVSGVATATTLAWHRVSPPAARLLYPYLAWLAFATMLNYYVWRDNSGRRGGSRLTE
- assay_summary: NVS_MP_rPBR: NovaScreen (NVS) Membrane Protein Assay for rat Peripheral-type Benzodiazepine Receptor (PBR) (AID 2283335)
Results filed as inconclusive are left out. Activity calls are given as the source filed them. The calls were made as follows: active = hit-call score of the fitted dose curve at least 0.9, where 1 is the maximum; inconclusive = response in the unintended direction; inactive = score below 0.9.
Choose the fitting class; nothing outside active, inactive is accepted.

Recorded results for 10 compounds are shown here.
compound: CCCCOCN(C(=O)CCl)c1c(CC)cccc1CC
label: active
//
compound: COC(=O)c1c(C(F)F)nc(C(F)(F)F)c(C2=NCCS2)c1CC(C)C
label: active
//
compound: CCN(CC)C(=O)C(C)Oc1cccc2ccccc12 (stereo not given)
label: active
//
compound: CCOP(=O)(OCC)Oc1nc(Cl)c(Cl)cc1Cl
label: active
//
compound: CCNP(=S)(OC)O/C(C)=C/C(=O)OC(C)C (stereo not given)
label: active
//
compound: COc1ccc(-c2ccccc2)cc1NNC(=O)OC(C)C
label: active
//
compound: CCN(CC)c1nc(C)cc(OP(=S)(OC)OC)n1
label: active
//
compound: Clc1nc(Cl)nc(Nc2ccccc2Cl)n1
label: active
//
compound: CNC(=O)Oc1cccc2ccccc12
label: active
//
compound: CCOP(=S)(OCC)Oc1nc(Cl)n(C(C)C)n1
label: active

# input Short answer needed: outcome of this test for CC1(C)C(C=C(Cl)Cl)C1C(=O)OC(C#N)c1cccc(Oc2ccccc2)c1 (stereo not given) ?
# output active

# input Try this compound next: "COC(=O)N(C(=O)N1CO[C@@]2(C(=O)OC)Cc3cc(Cl)ccc3C2=N1)c1ccc(OC(F)(F)F)cc1"
# output inactive

# input Entry "N#Cc1c(Cl)cccc1Cl" please
# output inactive

# input What would you report for COCC(C)N(C(=O)CCl)c1c(C)csc1C (stereo not given) ?
# output active

# input Queued: "O=C(Nc1ccccc1-c1ccc(Cl)cc1)c1cccnc1Cl"
# output inactive

// data source = PubChem BioAssay (EPA / NIEHS)
